# tested.on: MBP-FoxP3dN (Mus musculus, UniProt Q99JB6 188-423)
# Sequence: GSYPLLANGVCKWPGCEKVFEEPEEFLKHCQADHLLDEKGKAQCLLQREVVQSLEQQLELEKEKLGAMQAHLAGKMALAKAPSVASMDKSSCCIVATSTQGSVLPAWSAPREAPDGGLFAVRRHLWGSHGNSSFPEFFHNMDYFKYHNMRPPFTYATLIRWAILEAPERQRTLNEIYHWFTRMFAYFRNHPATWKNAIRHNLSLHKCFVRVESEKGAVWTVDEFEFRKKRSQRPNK
# method.notes: PD-seq (MBP pull-down with sequencing); 20 mM Tris-HCl pH 7.5, 100 mM NaCl, 1.5 mM MgCl2, 0.4 uM protein, 0.1 uM dsDNA library, 30 min, room temperature, amylose pull-down; high values mean tight binding
# test.context: protein: recombinant; tags: His6-MBP; chain copies: 2; dsDNA, one strand shown
Over roughly 16,000 sequences, “rpm ratio (pull-down/input)” has its median near 0.5; the highest 2% begin near 5.5. Shown is part of a subset that was picked to be rich in the highest values.
Answer each item with its documented binding signal.

Ask: Return reported binding signal. Input sequence: `GATGATTGTTCTCCCAGCTGATGAATTGTTTTGATCGAGTAAACAAATTTTCCTAATCTTTCTGTTCAAGCGCCATCTAC`
Reply: 4.03 RPM ratio (pull-down/input)

Ask: Return reported binding signal. Input sequence: `GATGATTGTTCTCCCAGCTGATGAATTTACGCACTCGAGTAAACAAATTTTCCTAATCTTTCTGTTCAAGCGCCATCTAC`
Reply: 0.784 RPM ratio (pull-down/input)

Ask: Return reported binding signal. Input sequence: `GATGATTGTTCTCCCAGCTGATGAATTACTCCACTCGAGTAAACAAATTTTCCTAATCTTTCTGTTCAAGCGCCATCTAC`
Reply: 0.339 RPM ratio (pull-down/input)

Ask: Return reported binding signal. Input sequence: `GATGATTGTTCTCCCAGCTGATGAATTGGCCCGGTCGAGTAAACAAATTTTCCTAATCTTTCTGTTCAAGCGCCATCTAC`
Reply: 0.201 RPM ratio (pull-down/input)

Ask: Return reported binding signal. Input sequence: `GATGATTGTTCTCCCAGCTGATGAATTGGTGAATTCGAGTAAACAAATTTTCCTAATCTTTCTGTTCAAGCGCCATCTAC`
Reply: 0.867 RPM ratio (pull-down/input)

Ask: Return reported binding signal. Input sequence: `GATGATTGTTCTCCCAGCTGATGAATTTCCGTGGTCGAGTAAACAAATTTTCCTAATCTTTCTGTTCAAGCGCCATCTAC`
Reply: 0.282 RPM ratio (pull-down/input)

Ask: Return reported binding signal. Input sequence: `GATGATTGTTCTCCCAGCTGATGAATTATGCGTGTCGAGTAAACAAATTTTCCTAATCTTTCTGTTCAAGCGCCATCTAC`
Reply: 5.88 RPM ratio (pull-down/input)

Ask: Return reported binding signal. Input sequence: `GATGATTGTTCTCCCAGCTGATGAATTTTACGCCTCGAGTAAACAAATTTTCCTAATCTTTCTGTTCAAGCGCCATCTAC`
Reply: 0.506 RPM ratio (pull-down/input)

Ask: Return reported binding signal. Input sequence: `GATGATTGTTCTCCCAGCTGATGAATTGTGCGTGTCGAGTAAACAAATTTTCCTAATCTTTCTGTTCAAGCGCCATCTAC`
Reply: 6.18 RPM ratio (pull-down/input)

Ask: Return reported binding signal. Input sequence: `GATGATTGTTCTCCCAGCTGATGAATTGTTGACATCGAGTAAACAAATTTTCCTAATCTTTCTGTTCAAGCGCCATCTAC`
Reply: 5.72 RPM ratio (pull-down/input)

Ask: Return reported binding signal. Input sequence: `GATGATTGTTCTCCCAGCTGATGAATTTTACGATTCGAGTAAACAAATTTTCCTAATCTTTCTGTTCAAGCGCCATCTAC`
Reply: 0.308 RPM ratio (pull-down/input)

Ask: Return reported binding signal. Input sequence: `GATGATTGTTCTCCCAGCTGATGAATTGCGTGTGTCGAGTAAACAAATTTTCCTAATCTTTCTGTTCAAGCGCCATCTAC`
Reply: 2.22 RPM ratio (pull-down/input)

Ask: Return reported binding signal. Input sequence: `GATGATTGTTCTCCCAGCTGATGAATTGTGTGCGTCGAGTAAACAAATTTTCCTAATCTTTCTGTTCAAGCGCCATCTAC`
Reply: 2.16 RPM ratio (pull-down/input)

Ask: Return reported binding signal. Input sequence: `GATGATTGTTCTCCCAGCTGATGAATTACGCGCATCGAGTAAACAAATTTTCCTAATCTTTCTGTTCAAGCGCCATCTAC`
Reply: 1.54 RPM ratio (pull-down/input)

Ask: Return reported binding signal. Input sequence: `GATGATTGTTCTCCCAGCTGATGAATTTTTGACATCGAGTAAACAAATTTTCCTAATCTTTCTGTTCAAGCGCCATCTAC`
Reply: 0.524 RPM ratio (pull-down/input)

Ask: Return reported binding signal. Input sequence: `GATGATTGTTCTCCCAGCTGATGAATTATATGCGTCGAGTAAACAAATTTTCCTAATCTTTCTGTTCAAGCGCCATCTAC`
Reply: 1.07 RPM ratio (pull-down/input)

Ask: Return reported binding signal. Input sequence: `GATGATTGTTCTCCCAGCTGATGAATTACGCCTCTCGAGTAAACAAATTTTCCTAATCTTTCTGTTCAAGCGCCATCTAC`
Reply: 5.99 RPM ratio (pull-down/input)

Ask: Return reported binding signal. Input sequence: `GATGATTGTTCTCCCAGCTGATGAATTTGGGTGGTCGAGTAAACAAATTTTCCTAATCTTTCTGTTCAAGCGCCATCTAC`
Reply: 0.682 RPM ratio (pull-down/input)

Ask: Return reported binding signal. Input sequence: `GATGATTGTTCTCCCAGCTGATGAATTTATTACGTCGAGTAAACAAATTTTCCTAATCTTTCTGTTCAAGCGCCATCTAC`
Reply: 1.22 RPM ratio (pull-down/input)

Ask: Return reported binding signal. Input sequence: `GATGATTGTTCTCCCAGCTGATGAATTGTGCCATTCGAGTAAACAAATTTTCCTAATCTTTCTGTTCAAGCGCCATCTAC`
Reply: 6.37 RPM ratio (pull-down/input)

Ask: Return reported binding signal. Input sequence: `GATGATTGTTCTCCCAGCTGATGAATTAAGCGGATCGAGTAAACAAATTTTCCTAATCTTTCTGTTCAAGCGCCATCTAC`
Reply: 0.341 RPM ratio (pull-down/input)

Ask: Return reported binding signal. Input sequence: `GATGATTGTTCTCCCAGCTGATGAATTTGATTGATCGAGTAAACAAATTTTCCTAATCTTTCTGTTCAAGCGCCATCTAC`
Reply: 2.23 RPM ratio (pull-down/input)

Ask: Return reported binding signal. Input sequence: `GATGATTGTTCTCCCAGCTGATGAATTGATTTGATCGAGTAAACAAATTTTCCTAATCTTTCTGTTCAAGCGCCATCTAC`
Reply: 0.64 RPM ratio (pull-down/input)

Ask: Return reported binding signal. Input sequence: `GATGATTGTTCTCCCAGCTGATGAATTGGACGACTCGAGTAAACAAATTTTCCTAATCTTTCTGTTCAAGCGCCATCTAC`
Reply: 0.259 RPM ratio (pull-down/input)

Ask: Return reported binding signal. Input sequence: `GATGATTGTTCTCCCAGCTGATGAATTTGTGCATTCGAGTAAACAAATTTTCCTAATCTTTCTGTTCAAGCGCCATCTAC`
Reply: 7.63 RPM ratio (pull-down/input)

Ask: Return reported binding signal. Input sequence: `GATGATTGTTCTCCCAGCTGATGAATTACGCATCTCGAGTAAACAAATTTTCCTAATCTTTCTGTTCAAGCGCCATCTAC`
Reply: 7.33 RPM ratio (pull-down/input)

Ask: Return reported binding signal. Input sequence: `GATGATTGTTCTCCCAGCTGATGAATTACGCAGCTCGAGTAAACAAATTTTCCTAATCTTTCTGTTCAAGCGCCATCTAC`
Reply: 1.78 RPM ratio (pull-down/input)

Ask: Return reported binding signal. Input sequence: `GATGATTGTTCTCCCAGCTGATGAATTATGCGCGTCGAGTAAACAAATTTTCCTAATCTTTCTGTTCAAGCGCCATCTAC`
Reply: 3.33 RPM ratio (pull-down/input)

Ask: Return reported binding signal. Input sequence: `GATGATTGTTCTCCCAGCTGATGAATTCATTTGTTCGAGTAAACAAATTTTCCTAATCTTTCTGTTCAAGCGCCATCTAC`
Reply: 3.73 RPM ratio (pull-down/input)

###

Answer each item with its documented binding signal.
# tested.on: MBP-FoxP3dN (Mus musculus, UniProt Q99JB6 188-423)
# Sequence: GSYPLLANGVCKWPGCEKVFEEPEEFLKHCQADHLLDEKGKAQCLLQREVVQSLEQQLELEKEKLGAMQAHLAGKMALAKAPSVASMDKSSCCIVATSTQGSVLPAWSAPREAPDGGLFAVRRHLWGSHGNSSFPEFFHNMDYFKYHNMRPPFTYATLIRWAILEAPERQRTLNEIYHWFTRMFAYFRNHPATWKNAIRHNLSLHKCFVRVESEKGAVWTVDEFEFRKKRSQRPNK
# method.notes: PD-seq (MBP pull-down with sequencing); 20 mM Tris-HCl pH 7.5, 100 mM NaCl, 1.5 mM MgCl2, 0.4 uM protein, 0.1 uM dsDNA library, 30 min, room temperature, amylose pull-down; high values mean tight binding
# test.context: protein: recombinant; tags: His6-MBP; chain copies: 2; dsDNA, one strand shown
In all, about 16,000 sequences were measured (“rpm ratio (pull-down/input)”: median about 0.5, highest 2% from about 5.5 on). Shown is part of a subset that was picked to be rich in the highest values.

Ask: Return reported binding signal. Input sequence: `GATGATTGTTCTCCCAGCTGATGAATTGACTCTCTCGAGTAAACAAATTTTCCTAATCTTTCTGTTCAAGCGCCATCTAC`
Reply: 0.425 RPM ratio (pull-down/input)

Ask: Return reported binding signal. Input sequence: `GATGATTGTTCTCCCAGCTGATGAATTATTCCTATCGAGTAAACAAATTTTCCTAATCTTTCTGTTCAAGCGCCATCTAC`
Reply: 0.365 RPM ratio (pull-down/input)

Ask: Return reported binding signal. Input sequence: `GATGATTGTTCTCCCAGCTGATGAATTGTATTTATCGAGTAAACAAATTTTCCTAATCTTTCTGTTCAAGCGCCATCTAC`
Reply: 6.83 RPM ratio (pull-down/input)

Ask: Return reported binding signal. Input sequence: `GATGATTGTTCTCCCAGCTGATGAATTTTATTTATCGAGTAAACAAATTTTCCTAATCTTTCTGTTCAAGCGCCATCTAC`
Reply: 6.95 RPM ratio (pull-down/input)

Ask: Return reported binding signal. Input sequence: `GATGATTGTTCTCCCAGCTGATGAATTTTATTGATCGAGTAAACAAATTTTCCTAATCTTTCTGTTCAAGCGCCATCTAC`
Reply: 5.5 RPM ratio (pull-down/input)

Ask: Return reported binding signal. Input sequence: `GATGATTGTTCTCCCAGCTGATGAATTTTGTCGATCGAGTAAACAAATTTTCCTAATCTTTCTGTTCAAGCGCCATCTAC`
Reply: 1.18 RPM ratio (pull-down/input)

Ask: Return reported binding signal. Input sequence: `GATGATTGTTCTCCCAGCTGATGAATTAAGTAGCTCGAGTAAACAAATTTTCCTAATCTTTCTGTTCAAGCGCCATCTAC`
Reply: 0.874 RPM ratio (pull-down/input)

Ask: Return reported binding signal. Input sequence: `GATGATTGTTCTCCCAGCTGATGAATTTATTTGATCGAGTAAACAAATTTTCCTAATCTTTCTGTTCAAGCGCCATCTAC`
Reply: 2.62 RPM ratio (pull-down/input)

Ask: Return reported binding signal. Input sequence: `GATGATTGTTCTCCCAGCTGATGAATTTTTATTATCGAGTAAACAAATTTTCCTAATCTTTCTGTTCAAGCGCCATCTAC`
Reply: 0.779 RPM ratio (pull-down/input)

Ask: Return reported binding signal. Input sequence: `GATGATTGTTCTCCCAGCTGATGAATTCTGTATTTCGAGTAAACAAATTTTCCTAATCTTTCTGTTCAAGCGCCATCTAC`
Reply: 4.09 RPM ratio (pull-down/input)

Ask: Return reported binding signal. Input sequence: `GATGATTGTTCTCCCAGCTGATGAATTCGAGTTATCGAGTAAACAAATTTTCCTAATCTTTCTGTTCAAGCGCCATCTAC`
Reply: 0.746 RPM ratio (pull-down/input)

Ask: Return reported binding signal. Input sequence: `GATGATTGTTCTCCCAGCTGATGAATTGTATTTTTCGAGTAAACAAATTTTCCTAATCTTTCTGTTCAAGCGCCATCTAC`
Reply: 3.78 RPM ratio (pull-down/input)

Ask: Return reported binding signal. Input sequence: `GATGATTGTTCTCCCAGCTGATGAATTCAATTCGTCGAGTAAACAAATTTTCCTAATCTTTCTGTTCAAGCGCCATCTAC`
Reply: 0.665 RPM ratio (pull-down/input)

Ask: Return reported binding signal. Input sequence: `GATGATTGTTCTCCCAGCTGATGAATTGTGTATTTCGAGTAAACAAATTTTCCTAATCTTTCTGTTCAAGCGCCATCTAC`
Reply: 5.82 RPM ratio (pull-down/input)

Ask: Return reported binding signal. Input sequence: `GATGATTGTTCTCCCAGCTGATGAATTGGAAGCATCGAGTAAACAAATTTTCCTAATCTTTCTGTTCAAGCGCCATCTAC`
Reply: 0.654 RPM ratio (pull-down/input)
